molecular target: Induced myeloid leukemia cell differentiation protein Mcl-1 (Homo sapiens); experiment: Displacement of TAMRA-Bak peptide from His6-MBP-tagged recombinant human MCl-1 (172 to 327 residues) expressed in HMS174 (DE3) cells by fluorescence polarization assay
pKi: −log10 of the molar value.
ENDPOINT_NAME: pKi

Consider the worked cases shown below.
1) O=C(O)c1cc(-c2ccc(Oc3ccccc3)cc2)cc(-c2cccc(Br)c2)n1 ... 5.07
2) CC(C)Oc1ccc(-c2cc(-c3ccc(Oc4ccccc4)cc3)cc(C(=O)O)n2)cc1 ... 5.13
3) CC(C)Oc1ccc(-c2cc(C(=O)O)nc(-c3ccc(OCc4ccccc4)cc3)c2)cc1 ... 5.01
4) O=C(O)c1cc(-c2ccc(OCc3ccccc3)cc2)cc(-c2ccc(OCc3ccccc3)cc2)n1 ... 5.04
5) O=C(O)c1cc(-c2ccc(Oc3ccccc3)cc2)cc(-c2ccccc2Br)n1 ... 4.99

P = COc1ccc(-c2cc(-c3ccc(Br)cc3)cc(C(=O)O)n2)cc1
Q = COc1ccc(-c2cc(-c3ccc(Oc4ccccc4)cc3)cc(C(=O)O)n2)cc1
R = O=C(O)c1cc(-c2ccc(Br)cc2)nc(-c2ccc(Oc3ccccc3)cc2)c1
S = CC(C)Oc1ccc(-c2cc(C(=O)O)nc(-c3ccc(OC(C)C)cc3OC(C)C)c2)cc1
T = O=C(O)c1cc(-c2ccc(Br)cc2)cc(-c2ccccc2)n1
# input # sort list by recorded pKi, greatest to least Answer format: the labels, in the requested order.
# output R, Q, S, P, T
(R: 5.35, Q: 4.96, S: 4.71, P: 4.40, T: 4.00)

====

target: Induced myeloid leukemia cell differentiation protein Mcl-1 (Homo sapiens, UniProt Q07820); assay: Displacement of TAMRA-Bak peptide from His6-MBP-tagged recombinant human MCl-1 (172 to 327 residues) expressed in HMS174 (DE3) cells by fluorescence polarization assay
Sequence (Q07820 whole entry, the tested form may be a part): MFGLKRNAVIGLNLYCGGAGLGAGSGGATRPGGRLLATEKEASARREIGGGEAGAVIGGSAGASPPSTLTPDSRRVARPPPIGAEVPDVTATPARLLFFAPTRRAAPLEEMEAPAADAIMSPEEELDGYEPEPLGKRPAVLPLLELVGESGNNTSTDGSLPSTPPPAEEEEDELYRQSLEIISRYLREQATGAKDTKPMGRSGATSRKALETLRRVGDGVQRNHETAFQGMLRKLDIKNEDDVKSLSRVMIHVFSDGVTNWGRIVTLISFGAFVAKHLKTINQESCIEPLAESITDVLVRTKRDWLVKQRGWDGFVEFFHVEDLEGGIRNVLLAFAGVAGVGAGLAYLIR
ENDPOINT_NAME: Ki (µM)

1. CC(C)Oc1ccc(-c2cc(C(=O)O)nc(-c3ccc(OC(C)C)cc3)c2)cc1 ... 28.8
2. O=C(O)c1cc(-c2ccc(Oc3ccccc3)cc2)cc(-c2ccc(OCc3ccccc3)cc2)n1 ... 6.1
3. O=C(O)c1cc(-c2ccc(Oc3ccccc3)cc2)cc(-c2ccc3c(c2)OCO3)n1 ... 38.2
4. O=C(O)c1cc(-c2ccc(Oc3ccccc3)cc2)cc(-c2ccc([N+](=O)[O-])cc2)n1 ... 13.7
5. O=C(O)c1cc(-c2ccc(Br)cc2)cc(-c2ccc(Cl)cc2)n1 ... 40
6. O=C(O)c1cc(-c2ccc(Oc3ccccc3)cc2)cc(-c2ccc(Br)cc2)n1 ... 7.44
7. O=C(O)c1cc(-c2ccc(Oc3ccccc3)cc2)cc(-c2ccccc2)n1 ... 9.24

a = O=C(O)c1cc(-c2ccc(Br)cc2)cc(-c2ccc(OCc3ccccc3)cc2)n1
b = O=C(O)c1cc(-c2ccc(Br)cc2)cc(-c2ccc(Br)cc2)n1
# input Two entries are listed, a and b . Which one carries the higher Ki? Answer = label.
# output b
(b: 40 µM, a: 7.6 µM)
